- Tested on: HCT116 WT cells
- Assay Summary: HCT116 proliferation assay, WT cells (CellTiter-Glo, 6 days)
- Format: cell-based
- Run Conditions: Homo sapiens, HCT-116, 144 h, read-out: Prolif_HCT116-WT IC50
Collected pIC50 values appear next to each entry.
Here pIC50 is given on a logarithmic scale as minus log10 of the concentration in mol/L.

Q: State the recorded pIC50 for this entry: C[C@H](c1ncccn1)N(Cc1ccc(C(F)(F)F)cn1)C(=O)c1cnc2nc(N)c(Br)cc2c1
Ans: 5.51

Q: Next: COC[C@H](c1ccccn1)N(Cc1ccc(C(F)(F)F)cn1)C(=O)c1ccc2nc(N)c(C)cc2c1 (single isomer, unassigned)
Ans: 5.77

Q: Subsequent entry: Cc1cc2cc(C(=O)N(Cc3ccc(C(F)(F)F)cn3)Cc3ncccn3)c(F)cc2nc1N
Ans: 5.37

Q: Field entry: Cc1cc2cc(C(=O)N(Cc3ccc(Cl)cn3)CC(C)C)ccc2nc1N
Ans: 5.07

Q: Now consider N#CC[C@@H](C1CC1)N(Cc1ccc(C#N)cn1)C(=O)c1ccc2nc(N)c(Br)cc2c1 and answer again.
Ans: 5.14

Q: Queued: [2H]C([2H])([2H])Oc1ccc(CN(C(=O)c2ccc3nc(N)c(C)cc3c2)[C@H](C)c2ncccn2)nc1 (single isomer, unassigned)
Ans: 5.39

Q: Now give it for COc1ccc(CN(C[C@H](OC)C(F)(F)F)C(=O)c2ccc3nc(N)c(C)cc3c2)nn1 (single isomer, unassigned) too.
Ans: 5.28

Q: Subsequent entry: Cc1cc2cc(C(=O)N(Cc3ncccc3Cl)[C@H](C)c3ncccn3)c(F)cc2nc1N (single isomer, unassigned)
Ans: 5.33

----------
- System Tested: PRMT5/MEP50 (Homo sapiens, UniProt O14744)
- Sequence (O14744 whole entry): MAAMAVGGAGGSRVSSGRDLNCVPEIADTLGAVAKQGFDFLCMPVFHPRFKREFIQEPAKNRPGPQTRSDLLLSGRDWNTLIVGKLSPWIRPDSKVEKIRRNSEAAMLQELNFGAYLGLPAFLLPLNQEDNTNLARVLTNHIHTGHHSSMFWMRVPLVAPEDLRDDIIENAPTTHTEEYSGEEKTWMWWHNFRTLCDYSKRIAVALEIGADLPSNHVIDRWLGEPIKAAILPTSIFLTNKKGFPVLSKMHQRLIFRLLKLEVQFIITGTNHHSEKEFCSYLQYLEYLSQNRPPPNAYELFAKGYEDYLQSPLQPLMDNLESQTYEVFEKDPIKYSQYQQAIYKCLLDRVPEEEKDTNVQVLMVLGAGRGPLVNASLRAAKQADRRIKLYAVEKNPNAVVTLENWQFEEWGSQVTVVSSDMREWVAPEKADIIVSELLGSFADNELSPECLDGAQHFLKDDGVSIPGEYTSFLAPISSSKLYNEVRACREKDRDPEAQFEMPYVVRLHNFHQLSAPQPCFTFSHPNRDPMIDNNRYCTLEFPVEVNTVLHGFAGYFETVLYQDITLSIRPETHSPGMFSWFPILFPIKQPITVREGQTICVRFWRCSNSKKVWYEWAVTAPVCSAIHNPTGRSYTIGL
- Sequence (Q9BQA1 whole entry partner): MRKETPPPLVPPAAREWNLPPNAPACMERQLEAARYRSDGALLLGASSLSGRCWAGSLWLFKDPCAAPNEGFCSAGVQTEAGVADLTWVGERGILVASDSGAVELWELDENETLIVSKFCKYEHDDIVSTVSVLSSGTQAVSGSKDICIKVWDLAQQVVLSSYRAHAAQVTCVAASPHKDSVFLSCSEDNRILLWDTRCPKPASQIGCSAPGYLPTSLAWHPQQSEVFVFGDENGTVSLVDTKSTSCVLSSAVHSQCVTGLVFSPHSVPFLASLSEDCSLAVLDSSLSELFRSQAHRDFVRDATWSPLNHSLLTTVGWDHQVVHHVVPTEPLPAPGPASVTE
- Assay Summary: MTase-Glo methyl transferase assay, Method A (Histone H4 peptide, 1 µM MTA, 24 h pre-incubation)
- Assay type: biochemical
- Parameters: made in house
- Run Conditions: read-out: PRMT5 MTase Glo Ki (nM, Meth. A)
We begin with a simple list: items and their reported Ki.
Form entry: value (nM) — number only.

Consider the following illustrative entries.
Q: Item under review: Cc1cc2cc(C(=O)N(Cc3ccc(C(N)=O)cn3)[C@H](C)c3ccccc3F)ccc2nc1N . Reported Ki?
Ans: 0.14

Q: Also need COc1cnc(CN(C(=O)c2ccc3nc(N)c(C)cc3c2)[C@H](C)c2ncccn2)cn1 (single isomer, unassigned) , thanks.
Ans: 0.83

Q: What do you have for COc1ccc(CN(C(=O)c2cnc3nc(N)c(Br)cc3c2)[C@H](C)c2ncccn2)nn1 (single isomer, unassigned) ?
Ans: 0.31

Q: And Cc1cc2cc(C(=O)N(Cc3ccc(C4CCOCC4)cn3)[C@H](C)c3ncccn3)ccc2nc1N ?
Ans: 0.07

Q: Same lookup for Cc1cc2cc(C(=O)N(Cc3ccc(C(F)(F)F)nn3)[C@@H]3CCc4cccnc43)ccc2nc1N , please.
Ans: 0.16

Others:
Q: Quick check: Ki of C[C@H](c1ncccn1)N(Cc1ccc(C(F)F)cn1)C(=O)c1cnc2nc(N)c(Br)cc2c1 ?
Ans: 0.11

----------
Measured pIC50 values are reported for all entries that follow.
- Tested on: HCT116 MTAP null cells
- Assay Summary: HCT116 proliferation assay, MTAP null cells (CellTiter-Glo, 6 days)
- Assay type: cell-based
- Run Conditions: HCT116-MTAP null, 144 h, read-out: Protif_ HCT116-MTAP null IC50
The value called pIC50 is obtained by taking minus log10 of the concentration in mol/L.

Q: Any idea what pIC50 was measured for Cc1cc2cc(C(=O)N(Cc3ccc(C(F)(F)F)cn3)Cc3cc4c([nH]c3=O)CCC4)ccc2nc1N ?
Ans: 6.55

***
Q: Which pIC50 reading was recorded for the compound Cc1cc2cc(C(=O)N(Cc3ccc(C4CCOCC4)cn3)[C@H](C)c3ncccn3)ccc2nc1N ?
Ans: 6.83

Q: Can you check CC(=O)N1CC=C(c2ccc(CN(C(=O)c3ccc4nc(N)c(C)cc4c3)[C@H](C)c3ncccn3)nc2)CC1 next?
Ans: 7.06

Q: Please answer likewise for Cc1cc2cc(C(=O)N(Cc3ccc(C#N)cn3)[C@H](C)c3ncn(C)n3)ccc2nc1N (single isomer, unassigned)
Ans: 7.11

----------
- Tested on: HCT116 MTAP null cells
- Assay Summary: HCT116 proliferation assay, MTAP null cells (CellTiter-Glo, 6 days)
- Format: cell-based
- Run Conditions: HCT116-MTAP null, 144 h, read-out: Protif_ HCT116-MTAP null IC50
Recorded Endpoint: IC50 (µM)
Give the value in µM but do not write µM after it.

Worked cases, answers included:
Q: Suppose we examine the compound Cc1cc2cc(C(=O)N(Cc3ccc(OCC(F)(F)F)nn3)[C@H](C)c3ncccn3)ccc2nc1N ; what IC50 value has been reported?
Ans: 0.156

Q: Query Cc1cc2cc(C(=O)N(Cc3ccc4c(c3)CNC4=O)Cc3ccc(C(F)(F)F)cn3)ccc2nc1N next
Ans: 0.89

Q: Do the same for Cc1cc2cc(C(=O)N(Cc3ccc4ccccc4n3)[C@H](C)c3ncccn3)ccc2nc1N (single isomer, unassigned) please
Ans: 0.045

Q: Consider next the compound Cc1cc2cc(C(=O)N(Cc3ccc(C(F)(F)F)cn3)Cc3ncccc3F)ncc2nc1N in the same way.
Ans: 0.806

Q: Thanks! And Cc1cc2cc(C(=O)N(Cc3cccc(O)c3)Cc3ccc(C(F)(F)F)cn3)ccc2nc1N ?
Ans: 0.044

Next:
Q: Suppose we examine the compound Cc1cc2cc(C(=O)N(Cc3ccc(C(F)(F)F)cn3)C(C)c3cccc(C#N)n3)ccc2nc1N (stereo not shown) ; what IC50 value has been reported?
Ans: 0.552

Q: Next compound: Cc1cc2cc(C(=O)N(Cc3ccc(C(F)(F)F)cn3)C3CCCC(O)C3)ccc2nc1N (stereo not shown)
Ans: 0.34

----------
This listing pairs molecules with measured Ki.
- System Tested: PRMT5/MEP50 (Homo sapiens)
- Assay Summary: MTase-Glo methyl transferase assay, Method A (Histone H4 peptide, 1 µM MTA, 24 h pre-incubation)
- Format: biochemical
- Set-up: made in house
- Run Conditions: read-out: PRMT5 MTase Glo Ki (nM, Meth. A)
Number plus unit, in that order.

Q: // fetch PRMT5/MEP50 (Homo sapiens) Ki for Cc1cc2cc(C(=O)N(Cc3ccc(C(F)(F)F)cn3)[C@@H]3CCCc4cccnc43)ccc2nc1N
Ans: 0.25 nM

---
Q: So what Ki did Cc1cc2cc(C(=O)N(Cc3ccc(C(F)(F)F)cn3)[C@H](C)c3ncccn3)c(Cl)cc2nc1N get with PRMT5/MEP50 (Homo sapiens)?
Ans: 0.29 nM

Q: Next up: Cc1cc2cc(C(=O)N(Cc3ccc(C(F)(F)F)nn3)[C@H](C)c3ncccn3)ccc2nc1N (single isomer, unassigned)
Ans: 0.1 nM

Q: Query CCOc1ccc(CN(C(=O)c2ccc3nc(N)c(C)cc3c2)[C@H](C)c2ncccn2)nc1 next
Ans: 0.87 nM

Q: Param item: Cc1cc2c(CN(Cc3ccc(C(F)(F)F)cn3)C(=O)c3ccc4nc(N)c(C)cc4c3)ccnc2[nH]1
Ans: 0.01 nM

Q: Lookup C[C@H](c1ncccn1)N(Cc1ccc(C(F)F)cn1)C(=O)c1cnc2nc(N)c(Cl)cc2c1
Ans: 0.89 nM

Q: Do the same for C[C@H](c1ncccc1F)N(Cc1ccc(C#N)cn1)C(=O)c1ccc2nc(N)c(Br)cc2c1 please
Ans: 0.14 nM

Q: // query: COCC(COC)N(Cc1ccc(C(F)(F)F)cn1)C(=O)c1ccc2nc(N)c(C)cc2c1
Ans: 0.14 nM

----------
- Tested on: HCT116 WT cells
- Assay Summary: HCT116 proliferation assay, WT cells (CellTiter-Glo, 6 days)
- Format: cell-based
- Run Conditions: Homo sapiens, HCT-116, 144 h, read-out: Prolif_HCT116-WT IC50
- Procedure: HCT116 MTAP null and WT cells were seeded in 96-well tissue culture plates in RPMI 1640 media + 10% fetal bovine serum. Plates were incubated overnight at 37° C. and 5% CO2. […] Effects on cell viability were measured with the CellTiter-Glo® Luminescent Cell Viability Assay (Promega) per manufacturer’s recommendation. Assay plates were read on an EnVision™ Multilabel Reader using the Ultra-Sensitive luminescence module.
pIC50 listing for selected compounds.
API: returns pIC50 as number; meaning -log10 of concentration in mol/L.

Q: Fill in the blank: the reported pIC50 of Cc1cc2cc(C(=O)N(Cc3ccc(C4CC4)nn3)[C@H](C)c3ncccn3)ccc2nc1N [Example 761] is ____.
Ans: 5.87

Q: Cool, now COC(=O)c1ccc(CN(C(=O)c2ccc3nc(N)c(C)cc3c2)[C@H](C)c2ncccc2F)nc1 [Example 403]
Ans: 5.05

Q: And the next one, COc1nc(C(F)(F)F)ccc1CN(C(=O)c1ccc2nc(N)c(C)cc2c1)[C@H](C)c1ncccn1 (single isomer, unassigned) [Example 469] ?
Ans: 6.23

Q: Would you mind doing C[C@H](c1ncccc1F)N(Cc1ccc(C#N)cn1)C(=O)c1ccc2nc(N)c(Br)cc2c1 [Example 352] as well?
Ans: 5.09

Q: Also Cc1cc2cc(C(=O)N(Cc3ccc(C(F)(F)F)cn3)[C@H](C)c3ncccn3)ccc2nc1N [Example 503] ?
Ans: 6.17

Q: What do we get for Cc1cc2cc(C(=O)N(Cc3ccc(C#N)cn3)[C@H](C)c3ncccc3F)ccc2nc1N [Example 542] ?
Ans: 5.38

Q: // repeat for Cc1cc2cc(C(=O)N(Cc3ccc(C(F)(F)F)cn3)Cc3ncccc3F)c(Cl)cc2nc1N [Example 804] and report
Ans: 5.24

Q: Please answer likewise for CCOc1ccc(CN(C(=O)c2cnc3nc(N)c(Br)cc3c2)[C@H](C)c2ncccn2)nn1 [Example 382]
Ans: 5.01

Q: Try the compound Cc1nc(CN(C(=O)c2cnc3nc(N)c(Br)cc3c2)[C@H](C)c2ncccn2)ccc1Br (single isomer, unassigned) [Example 470]
Ans: 5.66

Q: Repeat for the following compound: Cc1cc2cc(C(=O)N(Cc3ccc(N4CCC(F)(F)C4)cn3)[C@H](C)c3ncccn3)ccc2nc1N [Example 358]
Ans: 5.86

Others:
Q: Query: pIC50; subject: Cc1cc2cc(C(=O)N(Cc3ccc(C(F)(F)F)nc3)[C@H](C)c3ncccn3)ccc2nc1N (single isomer, unassigned) [Example 477]
Ans: 5.25

Q: Moving on to Cc1cc2cc(C(=O)N(Cc3ccc(C(F)(F)F)cn3)CC(C)C)c(O)cc2nc1N [Example 835]
Ans: 5.10

Q: Check Cc1cc2cc(C(=O)N(Cc3ccc(C(F)(F)F)cn3)Cc3c(C)c4ccccc4n3C)ccc2nc1N [Example 578] too.
Ans: 5.29

Q: Another compound to look at: Cc1cc2cc(C(=O)N(Cc3ccc(C(F)(F)F)cn3)[C@@H]3CC(F)(F)C[C@H]3O)ccc2nc1N (single isomer, unassigned) [Example 780]
Ans: 5.74

Q: And for Cc1cc2cc(C(=O)N(Cc3ccc(N4CCOCC4)nn3)[C@H](C)c3ncccn3)ccc2nc1N [Example 555] ?
Ans: 5.42

Q: Input Cc1cc2cc(C(=O)N(Cc3ccc(C(F)(F)F)nn3)[C@H](C)c3cscn3)ccc2nc1N (single isomer, unassigned) [Example 533]
Ans: 6.12

Q: // same read-out, input: Cc1cc2cc(C(=O)N(Cc3ccc(Br)nn3)[C@H](C)c3ncn(C)n3)ccc2nc1N (single isomer, unassigned) [Example 536]
Ans: 5.84
